# tested.target: hcGAS (Homo sapiens)
# Sequence (Q8N884 whole entry): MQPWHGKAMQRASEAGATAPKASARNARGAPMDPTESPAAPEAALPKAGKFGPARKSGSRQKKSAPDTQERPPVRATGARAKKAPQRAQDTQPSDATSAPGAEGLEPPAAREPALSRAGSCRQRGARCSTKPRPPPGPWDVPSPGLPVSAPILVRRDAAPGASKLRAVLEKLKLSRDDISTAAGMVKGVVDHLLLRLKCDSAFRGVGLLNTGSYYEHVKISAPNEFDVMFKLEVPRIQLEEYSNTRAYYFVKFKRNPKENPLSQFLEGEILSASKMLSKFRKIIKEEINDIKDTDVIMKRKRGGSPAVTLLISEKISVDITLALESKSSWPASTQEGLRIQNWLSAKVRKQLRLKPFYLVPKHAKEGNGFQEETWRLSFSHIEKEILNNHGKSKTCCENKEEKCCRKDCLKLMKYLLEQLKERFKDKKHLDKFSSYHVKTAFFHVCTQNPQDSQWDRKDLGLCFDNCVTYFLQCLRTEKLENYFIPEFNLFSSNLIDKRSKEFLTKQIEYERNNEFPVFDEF
# protocol.text: hcGAS LCMS assay (direct measurement of cGAMP production by LC/MS)
# Type: biochemical
# measurement.parameters: 4 h incubation with enzyme and substrates; cGAMP production by LC/MS; class symbols; read-out: hcGAS LCMS IC50
Would you mind telling me the reported IC50 of each entry?

## Input Fill in IC50 for record COCCOc1c(-c2c(Cl)cccc2OC)cc(C(=O)Nc2nnc(-n3nccc3N)s2)oc1=O (single isomer, unassigned) [Compound 15A*]
## Output < 0.5 nM

## Input Fill in IC50 for record "COCCOc1c(-c2c(F)cccc2OC)cc(C(=O)Nc2nnc(-n3nccc3N)s2)oc1=O"
## Output 0.5 to 1 nM

## Input Fill in IC50 for record COC[C@@H](CO)Oc1c(-c2c(OC)cccc2OC)cc(C(=O)Nc2nnc(-n3nccc3N)s2)oc1=O [Compound 62B*]
## Output 0.5 to 1 nM

## Input Fill in IC50 for record "COCCOc1c(-c2ncccc2OC)cc(C(=O)Nc2nnc(-c3c(F)ccn3C)s2)oc1=O"
## Output 1 to 5 nM
